biological target: Muscarinic acetylcholine receptor M3 (Homo sapiens, UniProt P20309); assay: Modulatory activity at M3 receptor (unknown origin) expressed in CHO-K1 cells assessed as intracellular calcium flux incubated for 30 mins by Fluo-8 dye based FLIPR analysis
Sequence (P20309 whole entry): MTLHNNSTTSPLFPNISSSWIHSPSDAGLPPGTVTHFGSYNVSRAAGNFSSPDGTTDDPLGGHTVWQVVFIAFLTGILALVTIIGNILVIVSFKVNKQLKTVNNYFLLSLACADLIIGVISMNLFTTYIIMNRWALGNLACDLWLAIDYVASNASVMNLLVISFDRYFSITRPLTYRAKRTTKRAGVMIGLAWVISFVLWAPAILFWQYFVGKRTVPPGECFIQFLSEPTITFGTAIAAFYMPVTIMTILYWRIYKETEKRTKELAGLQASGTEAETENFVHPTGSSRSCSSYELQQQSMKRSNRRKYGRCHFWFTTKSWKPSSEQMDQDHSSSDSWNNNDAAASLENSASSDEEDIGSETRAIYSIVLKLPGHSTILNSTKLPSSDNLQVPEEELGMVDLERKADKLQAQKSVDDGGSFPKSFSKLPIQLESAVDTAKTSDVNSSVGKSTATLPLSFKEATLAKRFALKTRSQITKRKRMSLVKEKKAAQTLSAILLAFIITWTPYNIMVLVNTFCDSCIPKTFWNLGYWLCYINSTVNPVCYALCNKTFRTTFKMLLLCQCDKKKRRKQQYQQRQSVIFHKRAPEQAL
MEASURED ENDPOINT: EC50

INSERT INTO measurements (substance_smiles, measured_endpoint, result) VALUES
  ('CCOC(=O)N1CC2(CC[C@@H](N3CCN(c4cc(F)cnc4-c4cncs4)CC3)C2)C1', 'EC50', '> 10 µM'),
  ('CCOC(=O)N1CC2(CC[C@@H](N3CCN(c4cc(F)cnc4-c4cnn(C(F)F)c4)CC3)C2)C1', 'EC50', '> 10 µM'),
  ('CCOC(=O)N1CC2(CC[C@@H](N3CCN(c4cccnc4-c4ccc(F)nc4)CC3)C2)C1', 'EC50', '> 10 µM'),
  ('CCOC(=O)N1CC2(CC[C@@H](N3CCN(c4cc(F)cnc4-c4ccc(=O)[nH]c4)CC3)C2)C1', 'EC50', '> 10 µM'),
  ('CCOC(=O)N1CC2(CC[C@@H](N3CCN(c4cc(F)cnc4-c4ccc(=O)n(C)c4)CC3)C2)C1', 'EC50', '> 10 µM'),
  ('CCOC(=O)N1CC2(CC[C@@H](N3CCN(c4cc(F)cnc4-c4cncc(OC)c4)CC3)C2)C1', 'EC50', '> 10 µM'),
  ('CCOC(=O)N1CC2(CC[C@@H](N3CCN(c4cc(F)cnc4-c4cnn(C(C)C)c4)CC3)C2)C1', 'EC50', '> 10 µM'),
  ('CCOC(=O)N1CC2(CC[C@@H](N3CCN(c4cc(F)cnc4-c4cccc(CO)c4)CC3)C2)C1', 'EC50', '> 10 µM');

---

molecular target: Muscarinic acetylcholine receptor M1 (Homo sapiens); assay: Modulatory activity at M1 receptor (unknown origin) expressed in CHO-K1 cells assessed as intracellular calcium flux incubated for 30 mins by Fluo-8 dye based FLIPR analysis
Sequence (P11229 whole entry): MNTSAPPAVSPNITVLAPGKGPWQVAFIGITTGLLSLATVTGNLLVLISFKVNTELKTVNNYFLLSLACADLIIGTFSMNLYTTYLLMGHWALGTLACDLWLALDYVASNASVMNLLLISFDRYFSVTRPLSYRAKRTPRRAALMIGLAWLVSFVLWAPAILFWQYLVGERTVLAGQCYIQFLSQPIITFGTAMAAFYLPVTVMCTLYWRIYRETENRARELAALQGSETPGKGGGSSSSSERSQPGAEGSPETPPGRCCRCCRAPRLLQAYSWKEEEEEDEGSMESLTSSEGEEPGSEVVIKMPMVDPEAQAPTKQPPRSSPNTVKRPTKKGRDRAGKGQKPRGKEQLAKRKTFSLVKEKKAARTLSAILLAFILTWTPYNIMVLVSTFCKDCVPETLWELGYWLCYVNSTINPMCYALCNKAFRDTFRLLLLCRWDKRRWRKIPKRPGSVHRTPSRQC
MEASURED ENDPOINT: EC50

INSERT INTO assay_data (substance_smiles, measured_endpoint, result) VALUES
  ('CCOC(=O)N1CC2(CC[C@@H](N3CCN(c4cccnc4-c4ccc(F)nc4)CC3)C2)C1', 'EC50', '> 10 µM'),
  ('CCOC(=O)N1CC2(CC[C@@H](N3CCN(c4cc(F)cnc4-c4ccc(=O)n(C)c4)CC3)C2)C1', 'EC50', '> 10 µM'),
  ('CCOC(=O)N1CC2(CC[C@@H](N3CCN(c4cc(F)cnc4-c4cncc(OC)c4)CC3)C2)C1', 'EC50', '< 0.02 µM'),
  ('CCOC(=O)N1CC2(CC[C@@H](N3CCN(c4cc(F)cnc4-c4cnn(C(F)F)c4)CC3)C2)C1', 'EC50', '> 10 µM');
